Tested on: Tetrahymena pyriformis
assay procedure: 48 h IGC50 (-log10 mol/L); higher = more toxic
measured metric: 48 h IGC50 (-log10 mol/L)
Please reply with the number alone, leaving off any unit.

C=CS(=O)(=O)c1ccccc1    4.28
Clc1cccc(Cl)c1Br    4.34
c1cn[nH]c1    1.29
Cc1ccc([N+](=O)[O-])c(O)c1    3.59
Cc1cccc(C)c1N    2.57
CC(C)CCOC(=O)c1ccc(O)cc1    4.48

Please fill in: 48 h IGC50 (-log10 mol/L) reported for CCCCC(Br)CBr (configuration not stated) = 4.15

Please fill in: 48 h IGC50 (-log10 mol/L) reported for `O=Cc1cccc(Cl)c1` = 3.41

Please fill in: 48 h IGC50 (-log10 mol/L) reported for `COc1ccc(C=O)cc1` = 2.95

Please fill in: 48 h IGC50 (-log10 mol/L) reported for `C=CC(=O)OCc1ccccc1` = 4.35

Please fill in: 48 h IGC50 (-log10 mol/L) reported for `CCCc1ccccc1N` = 3.08

Please fill in: 48 h IGC50 (-log10 mol/L) reported for `CCCCCCCCCCC(=O)OC` = 4.42

Please fill in: 48 h IGC50 (-log10 mol/L) reported for `O=Cc1ccoc1` = 3

###

Tested on: Pimephales promelas
assay procedure: 96 h LC50 (-log10 mol/L); higher = more toxic
Label scheme for 96 h LC50 (-log10 mol/L): lower than 4 is 0 (no), 4 and above is 1 (yes).

CC1=CC[C@@H]2C[C@H]1C2(C)C    1 (yes)
O=S1OCC2C(CO1)C1(Cl)C(Cl)=C(Cl)C2(Cl)C1(Cl)Cl (centres undefined)    1 (yes)
NC(=O)c1cccc(Br)c1    0 (no)
ClC(Cl)C(Cl)(Cl)Cl    1 (yes)
OCCCc1cccnc1    0 (no)

Is 96 h LC50 (-log10 mol/L) for `CCOP(=S)(OCC)Oc1ccc([N+](=O)[O-])cc1` at or above 4?
1 (yes)

###

Test system: Tetrahymena pyriformis
assay procedure: 48 h IGC50 (-log10 mol/L); higher = more toxic
measured metric: 48 h IGC50 (-log10 mol/L)
Please reply with the number alone, leaving off any unit.

Please fill in: 48 h IGC50 (-log10 mol/L) reported for CCCCC1CCC(=O)O1 (stereo not drawn) = 2.62

Please fill in: 48 h IGC50 (-log10 mol/L) reported for `Cc1cc(C)c(O)c(C(C)(C)C)c1` = 4.16

Please fill in: 48 h IGC50 (-log10 mol/L) reported for `Cc1cc(C)c(O)c(N)c1` = 3.89

Please fill in: 48 h IGC50 (-log10 mol/L) reported for `CCNCc1ccccc1` = 3.22

Please fill in: 48 h IGC50 (-log10 mol/L) reported for `CCCCCCCCCOC(=O)c1ccc(O)cc1` = 5.63

Please fill in: 48 h IGC50 (-log10 mol/L) reported for `O=C(c1ccccc1)c1ccc(O)c(O)c1O` = 3.88

Please fill in: 48 h IGC50 (-log10 mol/L) reported for C=CS(=O)c1ccccc1 (stereo not drawn) = 3.16

Please fill in: 48 h IGC50 (-log10 mol/L) reported for `COc1cc(C#N)ccc1O` = 2.97

Please fill in: 48 h IGC50 (-log10 mol/L) reported for `O=[N+]([O-])c1cccc(Br)c1` = 4.03

Please fill in: 48 h IGC50 (-log10 mol/L) reported for `CCOC(=O)c1ccc(I)cc1` = 4.53
